target: HLA DRB1*11:01 (Homo sapiens, UniProt P01903+P01911, A100R/A169T/A87E/I96F/K41T/L162R/M171V/P40S/Q125H/Q178H/Q39Y/Q99D/R42S/S66Y/T262R/V115G/W38E); test: biochemical; type: binding; conditions: binder threshold 1,000 nM, read-out: In vitro (IC50 nM) DRB1*11:01
Sequence (P01903 26-254, other chains not shown): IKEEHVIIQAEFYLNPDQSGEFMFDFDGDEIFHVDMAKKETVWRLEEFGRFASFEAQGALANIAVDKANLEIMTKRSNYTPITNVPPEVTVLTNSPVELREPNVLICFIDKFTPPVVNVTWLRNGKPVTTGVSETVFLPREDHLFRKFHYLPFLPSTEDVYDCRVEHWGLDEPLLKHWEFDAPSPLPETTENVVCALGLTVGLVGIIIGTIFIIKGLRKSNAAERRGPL
metric_name: IC50 (nM)
A number alone suffices; assume nM.

CC[C@H](C)[C@H](NC(=O)[C@@H]1CCCN1C(=O)[C@H](CCSC)NC(=O)[C@@H](N)CC(C)C)C(=O)N[C@@H](CC(C)C)C(=O)N[C@H](C(=O)N[C@@H](CC(C)C)C(=O)N[C@H](C(=O)N[C@@H](CCCNC(=N)N)C(=O)N[C@@H](C)C(=O)N[C@@H](CC(C)C)C(=O)N[C@H](C(=O)N[C@@H](C)C(=O)N[C@@H](CCC(=O)O)C(=O)N[C@@H](CO)C(=O)O)[C@@H](C)O)[C@@H](C)O)[C@@H](C)O : 37

Next up:
Qu. Output measured IC50 for this item: CC(C)C[C@H](NC(=O)[C@H](C)NC(=O)[C@H](CC(=O)O)NC(=O)[C@H](CCC(N)=O)NC(=O)[C@H](CC(=O)O)NC(=O)[C@H](CCC(=O)O)NC(=O)[C@@H](N)Cc1ccc(O)cc1)C(=O)N[C@@H](Cc1ccccc1)C(=O)N[C@@H](C)C(=O)N[C@@H](Cc1ccc(O)cc1)C(=O)N[C@H](C(=O)N[C@@H](CCCCN)C(=O)N[C@@H](CCCNC(=N)N)C(=O)N[C@@H](CC(N)=O)C(=O)N[C@H](C(=O)O)C(C)C)[C@@H](C)O [Peptide 105]
Ans. 21
